# methodNotes: Half-life using mouse brain homogenate
# Assay type: ADME
Square brackets hold non-standard residues; d marks the D form. Peptide text beside a SMILES is read from it. * marks the point of attachment. ξ: configuration not given here. pGlu = O=C1CC[C@@H](C(=O)O)N1; ξE = NC(CCC(=O)O)C(=O)O; OcHex = C1CCC(O*)CC1; OBn = c1ccc(CO*)cc1; OtBu = CC(C)(C)O*
quantity: half-life

# return recorded half-life for input NC(=O)[C@@H]1CCCN1C(=O)C(CCC(=O)OC1CCCCC1)NC(=O)[C@@H]1CCC(=O)N1 (stereo not given in full) ([pGlu]-[ξE](OcHex)-Pro-NH2)
25 min

Specify half-life for CCCCCCOC(=O)CCC(NC(=O)[C@@H]1CCC(=O)N1)C(=O)N1CCC[C@H]1C(N)=O (stereo not given in full) and stop.
22 min

Identify the reported half-life for the following entry. COC(=O)CCC(NC(=O)[C@@H]1CCC(=O)N1)C(=O)N1CCC[C@H]1C(N)=O (stereo not given in full) ([pGlu]-[ξE](OMe)-Pro-NH2)
20 min

Give half-life for the following molecule: CC(C)(C)OC(=O)CCC(NC(=O)[C@@H]1CCC(=O)N1)C(=O)N1CCC[C@H]1C(N)=O (stereo not given in full) ([pGlu]-[ξE](OtBu)-Pro-NH2)
70 min

***
Fill in reported half-life for this entry: NC(=O)[C@@H]1CCCN1C(=O)C(CCC(=O)OCc1ccccc1)NC(=O)[C@@H]1CCC(=O)N1 (stereo not given in full) ([pGlu]-[ξE](OBn)-Pro-NH2)
> 120 min
